These measurements were taken from ChEMBL document CHEMBL3351527.

test.name: Cytotoxicity against mouse Neuro2a cells assessed as reduction in cell viability after 24 hrs by MTT assay
Assay type: cell-based
condition.notes: n2a
measured.parameter: Activity

| smiles.code | Activity |
| --- | --- |
| O=C1C=C(NCCNc2c3c(nc4cc(Cl)ccc24)CCCC3)C(=O)c2ccccc21 | Non-toxic |
| O=C1C(Cl)=C(NCCNc2c3c(nc4ccccc24)CCCC3)C(=O)c2ccccc21 | Toxic |
| COc1ccc2nc3c(c(NCCNC4=CC(=O)c5c(O)cccc5C4=O)c2c1)CCCC3 | Toxic |
| O=C1C=C(NCCCNc2c3c(nc4ccccc24)CCCC3)C(=O)c2ccccc21 | Non-toxic |
| COc1ccc2nc3c(c(NCCCNC4=C(Cl)C(=O)c5ccccc5C4=O)c2c1)CCCC3 | Toxic |
| O=C1C(Cl)=C(NCCCNc2c3c(nc4cc(Cl)ccc24)CCCC3)C(=O)c2ccccc21 | Toxic |
| O=C1C(Cl)=C(NCCCNc2c3c(nc4ccccc24)CCCC3)C(=O)c2ccccc21 | Toxic |
| O=C1C=C(NCCNc2c3c(nc4ccccc24)CCCC3)C(=O)c2ccccc21 | Non-toxic |

Prompt line: What value of Activity has been recorded for this entry: O=C1C(NCCCNc2c3c(nc4ccccc24)CCCC3)=CC(=O)c2c(O)cccc21
Response line: Toxic

Prompt line: What value of Activity has been recorded for this entry: COc1ccc2nc3c(c(NCCCNC4=CC(=O)c5ccccc5C4=O)c2c1)CCCC3
Response line: Non-toxic

Prompt line: What value of Activity has been recorded for this entry: O=C1C(NCCNc2c3c(nc4cc(Cl)ccc24)CCCC3)=CC(=O)c2c(O)cccc21
Response line: Toxic

Prompt line: What value of Activity has been recorded for this entry: COc1ccc2nc3c(c(NCCNC4=CC(=O)c5ccccc5C4=O)c2c1)CCCC3
Response line: Toxic

Prompt line: What value of Activity has been recorded for this entry: O=C1C(NCCNc2c3c(nc4ccccc24)CCCC3)=CC(=O)c2c(O)cccc21
Response line: Toxic

Prompt line: What value of Activity has been recorded for this entry: O=C1C(NCCCNc2c3c(nc4cc(Cl)ccc24)CCCC3)=CC(=O)c2c(O)cccc21
Response line: Toxic

Prompt line: What value of Activity has been recorded for this entry: COc1ccc2nc3c(c(NCCNC4=C(Cl)C(=O)c5ccccc5C4=O)c2c1)CCCC3
Response line: Toxic

Prompt line: What value of Activity has been recorded for this entry: COc1ccc2nc3c(c(NCCCNC4=CC(=O)c5c(O)cccc5C4=O)c2c1)CCCC3
Response line: Toxic

Prompt line: What value of Activity has been recorded for this entry: O=C1C=C(NCCCNc2c3c(nc4cc(Cl)ccc24)CCCC3)C(=O)c2ccccc21
Response line: Non-toxic

Prompt line: What value of Activity has been recorded for this entry: O=C1C(Cl)=C(NCCNc2c3c(nc4cc(Cl)ccc24)CCCC3)C(=O)c2ccccc21
Response line: Toxic
